# subject_of_test: SLC22A1 (Homo sapiens, UniProt O15245)
# Sequence (O15245 whole entry): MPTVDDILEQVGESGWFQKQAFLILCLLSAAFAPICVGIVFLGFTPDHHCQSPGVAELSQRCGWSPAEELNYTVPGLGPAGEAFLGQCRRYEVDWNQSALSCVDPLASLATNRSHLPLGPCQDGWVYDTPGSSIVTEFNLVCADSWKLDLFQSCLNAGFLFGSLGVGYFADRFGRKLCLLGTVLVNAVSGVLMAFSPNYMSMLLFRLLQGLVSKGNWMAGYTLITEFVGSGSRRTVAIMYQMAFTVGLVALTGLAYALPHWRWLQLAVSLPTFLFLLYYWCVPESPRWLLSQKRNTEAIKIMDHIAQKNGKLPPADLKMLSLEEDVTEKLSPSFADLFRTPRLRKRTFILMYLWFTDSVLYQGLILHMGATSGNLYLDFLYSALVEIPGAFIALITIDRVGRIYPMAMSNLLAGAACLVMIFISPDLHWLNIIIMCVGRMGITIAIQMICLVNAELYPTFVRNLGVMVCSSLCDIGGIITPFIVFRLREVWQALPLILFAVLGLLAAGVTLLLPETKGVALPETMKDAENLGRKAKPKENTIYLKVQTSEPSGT
# assay_name: SLC22A1 IC50 determination (inhibition of tetraethylammonium accumulation over a concentration range)
# Format: cell-based
# Set-up: expressed in transfected cells
# particulars: read-out: Relative IC50
readout_kind: IC50 (µM)
Numbers only, in µM.

# chem_smiles, reading
records = [
    ("O=C1Nc2ccc(Cl)cc2[C@@](C#CC2CC2)(C(F)(F)F)O1", 7.4),
]

// switching to the query molecule
I am curious: what IC50 value has been reported for `COc1cc2nc(N3CCN(C(=O)c4ccco4)CC3)nc(N)c2cc1OC` ?
2.3

----------
# subject_of_test: SLC22A1 (Homo sapiens, UniProt O15245)
# assay_name: Tetraethylammonium accumulation in SLC22A1-overexpressing KCL22 cells co-incubated with 50 μM test drug
# particulars: 50 μM drug; SLC22A1-overexpressing KCL22 cells
readout_kind: Reduction in cellular accumulation (of tetraethylammonium) (%)
One number for each entry, in %.

# chem_smiles, value_unit, reading
measured = [
    ("Cc1ccnc2c1NC(=O)c1cccnc1N2C1CC1", "%", 24.5),
]

List the reported Reduction in cellular accumulation (of tetraethylammonium) of each compound below.
1. Cc1cc(C#N)cc(C)c1Oc1nc(Nc2ccc(C#N)cc2)nc(N)c1Br
2. O=C1Nc2ccc(Cl)cc2[C@@](C#CC2CC2)(C(F)(F)F)O1
3. Cc1cc(/C=C/C#N)cc(C)c1Nc1ccnc(Nc2ccc(C#N)cc2)n1

1. 22.5
2. 50.0
3. 41.2

Source of measurements: paper PMC4392609
